Data origin, for the record: PubChem BioAssay AID1996

Listed here are molecules together with their documented solubility kinetic.
cond: buffer; pH 7.4; 200.0 µM
value-type: solubility kinetic (µg/mL)

Cc1nc([N+](=O)[O-])cn1CC(=O)c1ccccc1 | 31.5
COc1cccc(-c2nc(=S)c3c(o2)CCCC3)c1 | 12.1
CN(C)CCCNC1=CC(=O)CC(c2ccccc2)C1 (centres undefined) | 34.8
Cc1cccc(NC(=O)CN(c2ccc(F)cc2)S(C)(=O)=O)c1 | 42.4
COc1ccc(C(=O)N2CC3(C)C4CCC3(C)C2(C#N)C4)cc1OC (centres undefined) | 45
O=c1c2c([N+](=O)[O-])cc([N+](=O)[O-])cc2sn1Cc1ccccc1 | 17.2
COCC(=O)Nc1ccc(OC)c(Cl)c1 | 33.8
Cc1cc(C(=O)Nc2ccccc2)c2ccccc2n1 | 3
Cc1ccc2[nH]cc(CCNS(=O)(=O)c3ccc(F)cc3)c2c1 | 23
O=[N+]([O-])c1ccc(NCCOc2ccccc2Cl)nc1 | 1.7
CN(C)CCCN(C(=O)c1ccco1)c1nc2ccc(F)cc2s1.Cl | 55
CCC(CC)C(=O)Nc1ccc(C(=O)Nc2cc(C)on2)cc1 | 5.7
CCN(CC)C(=O)CSc1nc(-c2ccccc2)ccc1C#N | 0.6
O=C(Nc1cccc([N+](=O)[O-])c1)C1C2CC/C=C\CCC21 (centres undefined) | 0.8
